Data origin: ChEMBL document CHEMBL1156304

Target protein (sequence): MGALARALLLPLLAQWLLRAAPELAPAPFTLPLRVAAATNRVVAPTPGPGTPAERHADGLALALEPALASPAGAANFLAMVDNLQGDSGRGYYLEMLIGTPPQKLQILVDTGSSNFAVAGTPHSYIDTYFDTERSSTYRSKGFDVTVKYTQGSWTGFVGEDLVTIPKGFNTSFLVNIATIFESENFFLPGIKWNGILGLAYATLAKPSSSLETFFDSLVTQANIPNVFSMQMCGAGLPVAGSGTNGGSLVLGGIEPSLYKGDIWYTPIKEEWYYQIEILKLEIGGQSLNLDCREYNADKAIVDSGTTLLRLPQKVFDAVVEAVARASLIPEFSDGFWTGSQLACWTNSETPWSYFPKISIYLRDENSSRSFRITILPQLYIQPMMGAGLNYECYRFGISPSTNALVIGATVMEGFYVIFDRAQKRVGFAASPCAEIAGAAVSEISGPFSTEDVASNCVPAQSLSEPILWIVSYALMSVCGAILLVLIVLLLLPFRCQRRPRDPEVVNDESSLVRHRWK
Attribute measured: IC50 (µM)

Some entries whose results are on file:
| Compound | IC50 / µM |
| --- | --- |
| CN1C(=O)C(c2ccncc2)(c2cccc(-c3cccc(F)c3F)c2)N=C1N (configuration not stated) | 0.13 |
| CN1C(=O)C(c2ccncc2)(c2cccc(-c3ccoc3)c2)N=C1N (configuration not stated) | 0.57 |
| CN1C(=O)C(c2ccncc2)(c2cccc(-c3cccc(OC(F)(F)F)c3)c2)N=C1N (configuration not stated) | 0.14 |

[I] CN1C(=O)C(c2ccncc2)(c2cccc(-c3cc(F)ccc3F)c2)N=C1N (racemic)
[II] CN1C(=O)[C@](c2ccncc2)(c2cccc(-c3cc(F)ccc3F)c2)N=C1N
[III] CN1C(=O)C(c2ccncc2)(c2cccc(-c3cccnc3F)c2)N=C1N (configuration not stated)
[IV] CN1C(=O)C(c2ccncc2)(c2cccc(-c3ccsc3)c2)N=C1N (configuration not stated)
Req: Sequence the entries by IC50, beginning with the highest number. Write the labels out in the order the request specifies.
Resp: III, II, IV, I
(III: 1 µM, II: 0.7 µM, IV: 0.19 µM, I: 0.12 µM)

====

# Target desc: Beta-secretase 1 (Homo sapiens, UniProt P56817)
# Sequence (P56817 whole entry): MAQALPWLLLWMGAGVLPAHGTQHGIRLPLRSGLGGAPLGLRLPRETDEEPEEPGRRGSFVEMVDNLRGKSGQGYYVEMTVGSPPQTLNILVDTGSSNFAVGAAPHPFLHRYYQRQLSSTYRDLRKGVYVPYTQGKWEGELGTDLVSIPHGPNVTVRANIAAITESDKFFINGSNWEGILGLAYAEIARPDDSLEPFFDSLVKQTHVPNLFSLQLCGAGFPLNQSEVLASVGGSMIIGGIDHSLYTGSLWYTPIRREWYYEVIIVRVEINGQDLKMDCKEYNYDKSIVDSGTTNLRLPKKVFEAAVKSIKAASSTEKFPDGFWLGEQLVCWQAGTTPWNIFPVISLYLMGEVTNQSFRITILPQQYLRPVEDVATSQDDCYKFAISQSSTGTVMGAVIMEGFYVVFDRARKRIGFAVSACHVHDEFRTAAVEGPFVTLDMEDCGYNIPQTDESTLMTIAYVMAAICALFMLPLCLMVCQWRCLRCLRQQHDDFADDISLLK
pIC50: −log10 of the molar value.
Attribute measured: pIC50

| Compound | pIC50 |
| --- | --- |
| CN1C(=O)C(c2ccncc2)(c2cccc(-c3cccc(F)c3F)c2)N=C1N (stereo not drawn) | 7.40 |

[A] CN1C(=O)C(c2ccncc2)(c2cccc(-c3cccc(F)c3)c2)N=C1N (stereo not drawn)
[B] CN1C(=O)C(c2ccncc2)(c2cccc(-c3cccnc3F)c2)N=C1N (stereo not drawn)
Req: // pick larger pIC50 from pair: A vs B Reply with the label of the item you choose.
Resp: B
(B: 7.52, A: 7.30)

====

# Protocol summary: Selectivity ratio of IC50 for BACE2 to IC50 for BACE1
Attribute measured: Ratio IC50

| Compound | Attribute measured | Measured result |
| --- | --- | --- |
| CN1C(=O)C(c2ccncc2)(c2cccc(-c3ccccc3)c2)N=C1N (stereo not given) | Ratio IC50 | 1.1 |
| CN1C(=O)C(c2ccncc2)(c2cccc(-c3cccc(C#N)c3)c2)N=C1N (stereo not given) | Ratio IC50 | 1 |
| CN1C(=O)C(c2ccncc2)(c2cccc(-c3cccc(OC(F)(F)F)c3)c2)N=C1N (stereo not given) | Ratio IC50 | 0.6 |
| CN1C(=O)C(c2ccncc2)(c2cccc(-c3cccnc3F)c2)N=C1N (stereo not given) | Ratio IC50 | 33 |
| CN1C(=O)C(c2ccncc2)(c2cccc(-c3cc(F)cc(F)c3)c2)N=C1N (stereo not given) | Ratio IC50 | 1 |

[1] CN1C(=O)C(c2ccncc2)(c2cccc(-c3cccc(F)c3F)c2)N=C1N (stereo not given)
[2] CN1C(=O)C(c2ccccc2)(c2ccncc2)N=C1N (stereo not given)
[3] CN1C(=O)C(c2ccncc2)(c2cccc(-c3cccnc3)c2)N=C1N (stereo not given)
[4] CN1C(=O)C(c2ccncc2)(c2cccc(-c3cccc(F)c3)c2)N=C1N (stereo not given)
Req: Place the items in sequence of falling Ratio IC50. Give the order by naming the labels one after another as requested.
Resp: 3, 1, 4, 2
(3: 8, 1: 3.3, 4: 1.6, 2: 0.8)
